Cited source for all entries: patent US20210045385A1

tested on: pigweed (Amaranthus retroflexus); experiment: Test A postemergence, visual plant response rating; format: in vivo; conditions: Postemergence, 125 g ai/ha; 0 to 100 scale (0 no effect, 100 complete control)
Binary label based on Pigweed plant response rating with cut-off 40: below gives T, not below gives F.

Study these solved cases before continuing.
{"columns": ["molecule", "system", "class_assignment"],
 "data": [
  ["Cc1nn(C)c(=O)c(C(=NOCC=CCl)c2ccc(F)c3ccccc23)c1O [Compound 106]", "pigweed (Amaranthus retroflexus)", "F"],
  ["CCC(=O)Oc1c(C)nn(C)c(=O)c1C(=NOC)c1cccc2ccccc12 [Compound 49]", "pigweed (Amaranthus retroflexus)", "F"],
  ["C=CCc1ccccc1C(=NOC)c1c(O)c(C)nn(C)c1=O [Compound 121]", "pigweed (Amaranthus retroflexus)", "F"],
  ["CO/N=C(/c1c(O)c(C)nn(C)c1=O)c1cccc2ccccc12 [Compound 31]", "pigweed (Amaranthus retroflexus)", "F"]
]}

Is Pigweed plant response rating of CO/N=C(/c1cccc(C)c1)c1c(O)c(C2CC2)nn(C)c1=O [Compound 28] strictly below 40?
T

Is Pigweed plant response rating of CCc1cccc(/C(=N\OC)c2c(O)c(C)nn(C)c2=O)c1 [Compound 68] strictly below 40?
T

Is Pigweed plant response rating of Cc1ccccc1/C(=N\OC(C)C)c1c(O)c(C)nn(C)c1=O [Compound 20] strictly below 40?
F
